# System: breast cancer (MCF-7) cells
# measurementProtocol: Cytotoxicity, MTT assay
# Type: cell-based, human
# testContext: MCF7 cells, read-out: Cytotoxic activity IC50 MCF7
propertyMeasured: pIC50
Units for pIC50: none; it is -log10 of a concentration expressed in mol/L.

What value of pIC50 has been recorded for this entry: Cc1ccc(-c2cc(-c3ccccc3)nc3sc4c(c23)NC2(CCCC2)NC4=O)cc1
5.00

* * *

propertyMeasured: melting point

// melting point lookup, key: Cc1cc(C)c2c(n1)sc1c(Cl)nc(Cl)nc12
250 to 251 °C

Fill blank: measured melting point of the compound Cc1ccc(-c2cc(-c3ccccc3)nc3sc4c(Cl)nc(Cl)nc4c23)cc1 is ____.
220 °C

Field request: melting point | item: Cc1ccc(-c2cc(-c3ccccc3)nc3sc4c(=O)[nH]c(CN5CCOCC5)nc4c23)cc1
245 °C

Given the compound Cc1ccc(-c2cc(-c3ccccc3)nc3sc4c(c23)NC2(CCCCC2)NC4=O)cc1 , what is its reported melting point?
263 °C

Requested read-out: melting point. Entry: Cc1cc(C)c2c3c(sc2n1)C(SCC(N)=O)=NC1(CCCCC1)N3
160 to 161 °C

Quick check: melting point of Cc1cc(C)c2c3c(sc2n1)C(=S)NC1(CCCCC1)N3 ?
201 °C

Need melting point, item Cc1ccc(-c2cc(-c3ccccc3)nc3sc4c(c23)NC2(CCCCC2)NC4=S)cc1
178 to 179 °C

Requested field: melting point. Item: Cc1cc(C)c2c3c(sc2n1)C(=O)NC1(CCCCC1)N3
290 to 291 °C

Can you look up the measured melting point of Cc1ccc(-c2cc(-c3ccccc3)nc3sc4c(c23)NC2(CCCC2)N=C4SCC2CO2)cc1 (stereo not drawn) for me?
120 °C

* * *

Would you mind telling me the reported pIC50 of each entry?
# System: breast cancer (MCF-7) cells
# measurementProtocol: Cytotoxicity, MTT assay
# Format: cell-based, human
# testContext: Homo sapiens, MCF7, MCF7 cells, read-out: Cytotoxic activity IC50 MCF7
Scale note: pIC50 = -log10(concentration in M).

Enter reported pIC50 observed with breast cancer (MCF-7) cells for Cc1cc(C)c2c(n1)sc1c(Cl)nc(Cl)nc12
5.14

For breast cancer (MCF-7) cells, provide pIC50 of Cc1ccc(-c2cc(-c3ccccc3)nc3sc4c(c23)NC2(CCCCC2)NC4=O)cc1 please.
4.66

Return pIC50 measured with breast cancer (MCF-7) cells given this compound: Cc1ccc(-c2cc(-c3ccccc3)nc3sc4c(c23)NC2(CCCCC2)NC4=S)cc1
4.58

Kindly state the measured pIC50 obtained for Cc1ccc(-c2cc(-c3ccccc3)nc3sc4c(=O)[nH]c(CN5CCOCC5)nc4c23)cc1 with breast cancer (MCF-7) cells.
5.55

API: value(readout=pIC50, system=breast cancer (MCF-7) cells) for record Cc1ccc(-c2cc(-c3ccccc3)nc3sc4c(=O)[nH]c(CN5CCN(C)CC5)nc4c23)cc1
4.68

Write down the reported pIC50 of Cc1ccc(-c2cc(-c3ccccc3)nc3sc4c(c23)NC2(CCCC2)NC4=O)cc1 , test system: breast cancer (MCF-7) cells.
5.00

What value of pIC50 on breast cancer (MCF-7) cells does Cc1cc(C)c2c3c(sc2n1)C(=S)NC1(CCCCC1)N3 have?
4.68

# get_value(readout= pIC50, system= breast cancer (MCF-7) cells) for Cc1ccc(-c2cc(-c3ccccc3)nc3sc4c(Cl)nc(Cl)nc4c23)cc1
4.61

What reported pIC50 corresponds to COc1cccc2c1C(=O)c1c(O)c3c(c(O)c1C2=O)C[C@@](O)(C(=O)CO)C[C@@H]3O[C@H]1C[C@H](N)[C@H](O)[C@H](C)O1 [Doxorubicin, doxorubicin, reference compound] on breast cancer (MCF-7) cells?
5.45

Give pIC50 (breast cancer (MCF-7) cells) of the following compound: Cc1ccc(-c2cc(-c3ccccc3)nc3sc4c(=O)[nH]c(CCl)nc4c23)cc1
4.36

Lab note: need pIC50 for Cc1cc(C)c2c3c(sc2n1)C(=S)NC1(CCCC1)N3 on breast cancer (MCF-7) cells, anyone have it?
4.55

GET /values?readout=pIC50&system=breast cancer (MCF-7) cells&item= Cc1ccc(-c2cc(-c3ccccc3)nc3sc4c(c23)NC2(CCCC2)N=C4SCC(N)=O)cc1
4.87

Identify the measured pIC50 of Cc1cc(C)c2c(n1)sc1c(=O)[nH]c(=O)[nH]c12 for breast cancer (MCF-7) cells.
4.19

Recall the recorded pIC50 for Cc1cc(C)c2c3c(sc2n1)C(SCC(N)=O)=NC1(CCCCC1)N3 with breast cancer (MCF-7) cells and state it.
4.68

Form: Entry = Cc1ccc(-c2cc(-c3ccccc3)nc3sc4c(=O)[nH]c(=O)[nH]c4c23)cc1 | System = breast cancer (MCF-7) cells | pIC50 = ____
4.37

Notebook: pull reported pIC50 for breast cancer (MCF-7) cells, entry Cc1ccc(-c2cc(-c3ccccc3)nc3sc4c(c23)NC2(CCCC2)NC4=S)cc1
4.38

Any idea what pIC50 came out for Cc1cc(C)c2c3c(sc2n1)C(SCC1CO1)=NC1(CCCCC1)N3 (stereo not drawn) on breast cancer (MCF-7) cells?
4.63

Record Cc1cc(C)c2c3c(sc2n1)C(=O)NC1(CCCCC1)N3 : what is its pIC50 with breast cancer (MCF-7) cells?
4.65

Reported pIC50 for breast cancer (MCF-7) cells, given Cc1cc(C)c2c(n1)sc1c(=O)[nH]c(CCl)nc12 ?
4.81

Record lookup: for breast cancer (MCF-7) cells, what pIC50 belongs to Cc1cc(C)c2c3c(sc2n1)C(=O)NC1(CCCC1)N3 ?
4.11

pIC50 of Cc1ccc(-c2cc(-c3ccccc3)nc3sc4c(c23)NC2(CCCC2)N=C4SCC2CO2)cc1 (stereo not drawn) on breast cancer (MCF-7) cells?
5.82
